System: 317291-083-R-J1-PDC complex spheroids, viability;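 further: spheroids exposed to compounds for one week before readout; percent viability relative to DMSO vehicle wells taken as 100%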
Assay: Anticancer human tumor 317291-083-R-J1-PDC patient-derived soft tissue sarcoma cell line growth inhibition [GQUAD]
Details: second compound 0.1 µM; first compound 0.0316 µM; stronger effect = lower value
endpoint_label: viability, T/C (%)
Just the number in %, nothing appended.

Prompt: Give its viability, T/C value. Item: Cc1cccc(N(C)C(=O)C2C(O)CCN2c2nc(C)cc(C(F)(F)F)c2C#N)c1 (stereo unspecified) + Cc1[nH]c2ccc(F)cc2c1-c1nc2c3cccnc3c3ncccc3c2[nH]1
Completion: 117

Prompt: How about CC[C@@]1(O)C(=O)OCc2c1cc1n(c2=O)Cc2cc3c(CN(C)C)c(O)ccc3nc2-1 + Cc1[nH]c2ccc(F)cc2c1-c1nc2c3cccnc3c3ncccc3c2[nH]1 ?
Completion: 87.6

Prompt: How about COc1cccc2c1C(=O)c1c(O)c3c(c(O)c1C2=O)CC(O)(C(=O)CO)CC3OC1CC(N)C(O)C(C)O1 (stereo unspecified) + CN(C)c1ccc(Nc2c3ccc(NC(=O)CCN4CCCC4)cc3nc3cc(NC(=O)CCN4CCCC4)ccc23)cc1 ?
Completion: 64.1

Prompt: How about CC1COCCN1c1cc(C2(O)CC3CCC(C2)O3)c2cnn(-c3ccn[nH]3)c2n1 (stereo unspecified) + CN(C)c1ccc(Nc2c3ccc(NC(=O)CCN4CCCC4)cc3nc3cc(NC(=O)CCN4CCCC4)ccc23)cc1 ?
Completion: 50.5

Prompt: How about CCCS(=O)(=O)Nc1ccc(F)c(C(=O)c2c[nH]c3ncc(-c4ccc(Cl)cc4)cc23)c1F + CN(C)c1ccc(Nc2c3ccc(NC(=O)CCN4CCCC4)cc3nc3cc(NC(=O)CCN4CCCC4)ccc23)cc1 ?
Completion: 106

Prompt: How about Cc1[nH]c2ccccc2c1CCNCc1ccc(/C=C/C(=O)NO)cc1 + CN(C)c1ccc(Nc2c3ccc(NC(=O)CCN4CCCC4)cc3nc3cc(NC(=O)CCN4CCCC4)ccc23)cc1 ?
Completion: 56.6

Prompt: How about CC(C)(O)C1CCC(Nc2ccc3ncc(-c4cccc(C(F)(F)F)c4)n3n2)CC1 (stereo unspecified) + Cc1cnc(CNC(=O)c2c(=O)c3ccc(N4CCCN(C)CC4)nc3n3c2sc2ccccc23)cn1 ?
Completion: 58.2

Prompt: How about CC(C)n1c(=O)n(C)c2cnc3cc(F)c(-c4ccc(OCCCN5CCCCC5)nc4)cc3c21 + CN(C)c1ccc(Nc2c3ccc(NC(=O)CCN4CCCC4)cc3nc3cc(NC(=O)CCN4CCCC4)ccc23)cc1 ?
Completion: 92.9

Prompt: How about C=CCn1c(=O)c2cnc(Nc3ccc(N4CCN(C)CC4)cc3)nc2n1-c1cccc(C(C)(C)O)n1 + Cc1cnc(CNC(=O)c2c(=O)c3ccc(N4CCCN(C)CC4)nc3n3c2sc2ccccc23)cn1 ?
Completion: 57.3

Prompt: How about O=C(NO)c1cnc(N2CCN(S(=O)(=O)c3ccc4ccccc4c3)CC2)nc1 + Cc1[nH]c2ccc(F)cc2c1-c1nc2c3cccnc3c3ncccc3c2[nH]1 ?
Completion: 117

Prompt: How about C#Cc1c(F)ccc2cc(O)cc(-c3ncc4c(N5CC6CCC(C5)N6)nc(OCC56CCCN5CC(F)C6)nc4c3F)c12 (stereo unspecified) + Cc1[nH]c2ccc(F)cc2c1-c1nc2c3cccnc3c3ncccc3c2[nH]1 ?
Completion: 90.9
